Data credit: patent US6403561B1

Counter-ions that a name gives are not always drawn. Where a SMILES comes first, the peptide text is derived from it. [ ]: non-standard residue; d: D form. The star is where a group is joined. Abu = CC[C@H](N)C(=O)O; NHBu = CCCCN*
Value type: melting point

These recorded examples may help you get a feel for the data.
CCCCNC(=O)C1Cc2cc(O)ccc2N1C(=O)[C@@H](N)CC.O=C(O)C(=O)O (mixture of isomers): 129 to 130 °C
CCCCNC(=O)[C@@H]1Cc2cc(OC)ccc2N1C(=O)[C@H](C)N.O=C(O)C(=O)O: 141 to 143 °C
CCCCNC(=O)[C@@H]1CCCN1C(=O)[C@@H](N)CC (as salt: oxalate) [Example 4] (H-[Abu]-Pro-NHBu): 165 to 167 °C

The reported value for CC[C@H](N)C(=O)N1c2ccccc2C[C@H]1C(=O)NC (as salt: oxalate) (hydrate or solvate) in terms of melting point is 138 to 139 °C

The reported value for CCCCNC(=O)C1N(C(=O)[C@@H](N)CC)c2ccccc2C1(C)C.O=C(O)C(=O)O (mixture of isomers) in terms of melting point is 127 to 133 °C

The reported value for CCCCNC(=O)[C@@H]1Cc2c(OCC)cccc2N1C(=O)[C@@H](N)CC.O=C(O)C(=O)O in terms of melting point is 144.7 to 146.2 °C

The reported value for CCNC(=O)[C@@H]1Cc2ccccc2N1C(=O)[C@@H](N)CC in terms of melting point is 115 to 120 °C

The reported value for CCCCNC(=O)C1Cc2cc(OC)ccc2N1C(=O)[C@H](C)N.O=C(O)C(=O)O (mixture of isomers) in terms of melting point is 112 to 118 °C

The reported value for CC[C@H](N)C(=O)N1CCC[C@H]1C(=O)NCCCSC (as salt: oxalate) in terms of melting point is 120 to 121 °C

The reported value for CCCCNC(=O)C1Cc2cc(OC)ccc2N1C(=O)[C@@H](N)CC (mixture of isomers) (as salt: oxalate) in terms of melting point is 95 to 105 °C

* * *

Target of assay: membrane-bound tripeptidylpeptidase II (Rattus norvegicus)
Sequence (Q64560 whole entry): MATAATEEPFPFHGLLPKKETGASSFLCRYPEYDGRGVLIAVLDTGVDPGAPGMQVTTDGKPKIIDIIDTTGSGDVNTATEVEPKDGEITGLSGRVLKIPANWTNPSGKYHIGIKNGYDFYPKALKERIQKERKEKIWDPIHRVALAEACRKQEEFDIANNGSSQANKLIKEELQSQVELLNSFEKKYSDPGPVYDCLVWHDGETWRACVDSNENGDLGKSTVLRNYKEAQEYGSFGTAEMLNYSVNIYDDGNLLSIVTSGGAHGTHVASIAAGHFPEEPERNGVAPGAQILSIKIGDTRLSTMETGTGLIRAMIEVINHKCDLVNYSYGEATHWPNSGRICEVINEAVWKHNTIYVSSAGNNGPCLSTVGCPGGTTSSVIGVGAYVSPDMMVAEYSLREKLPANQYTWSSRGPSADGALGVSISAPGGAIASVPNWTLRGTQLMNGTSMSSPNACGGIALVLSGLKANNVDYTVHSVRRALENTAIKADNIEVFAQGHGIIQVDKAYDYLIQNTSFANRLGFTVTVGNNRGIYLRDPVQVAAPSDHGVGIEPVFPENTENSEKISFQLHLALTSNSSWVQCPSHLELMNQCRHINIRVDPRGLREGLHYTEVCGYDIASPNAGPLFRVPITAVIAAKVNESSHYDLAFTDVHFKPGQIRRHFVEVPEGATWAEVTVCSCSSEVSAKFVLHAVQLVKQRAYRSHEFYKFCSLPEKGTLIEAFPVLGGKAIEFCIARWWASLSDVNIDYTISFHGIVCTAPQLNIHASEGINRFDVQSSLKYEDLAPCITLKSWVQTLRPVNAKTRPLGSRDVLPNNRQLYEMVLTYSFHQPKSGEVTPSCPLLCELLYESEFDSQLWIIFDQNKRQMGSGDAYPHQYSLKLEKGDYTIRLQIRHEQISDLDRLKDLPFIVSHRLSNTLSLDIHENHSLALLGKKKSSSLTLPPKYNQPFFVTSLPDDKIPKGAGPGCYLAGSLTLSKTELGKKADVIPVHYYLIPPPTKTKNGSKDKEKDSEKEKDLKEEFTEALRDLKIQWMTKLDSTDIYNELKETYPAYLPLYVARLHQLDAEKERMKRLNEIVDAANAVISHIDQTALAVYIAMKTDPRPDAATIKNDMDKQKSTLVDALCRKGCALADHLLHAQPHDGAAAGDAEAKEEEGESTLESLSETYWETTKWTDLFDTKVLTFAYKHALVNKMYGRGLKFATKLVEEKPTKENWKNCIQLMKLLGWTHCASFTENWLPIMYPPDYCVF
Method: Measurement of the activity of membrane-bound tripeptidylpeptidase (release of Amc from A-AP-Amc, fluorimetry)
Reported conditions: Ki, apparent dissociation constant calculated from the 50% inhibitory concentration and the KM of the substrate (23 μM); rat brain membranes, 50 μM A-AP-Amc
Where a name gives a salt, the structure may show the parent alone. Where a SMILES comes first, the peptide text is derived from it. [ ]: non-standard residue; d: D form. The star is where a group is joined. Abu = CC[C@H](N)C(=O)O; NHPr = CCCN*
Value type: pKi
The quantity pKi is defined as the negative base-10 logarithm of the molar concentration.

CCCCNC(=O)C1Cc2cc(OC)ccc2N1C(=O)[C@H](C)N (mixture of isomers) [Example 25, Oxalate]: 7.59
CCCCNC(=O)[C@@H]1Cc2cc(O)ccc2N1C(=O)[C@@H](N)CC.O=C(O)C(=O)O [Example 33, Oxalate]: 8.18
CCCNC(=O)[C@@H]1CCCN1C(=O)[C@@H](N)CC [Example 6] (H-[Abu]-Pro-NHPr): 7.10

The reported value for CC[C@H](C)CNC(=O)[C@@H]1CCCN1C(=O)[C@@H](N)CC [Example 5] in terms of pKi is 6.30
